Attribute: normalized growth
Assay: chemical genetic growth profiling, strain panel (AID 1159580);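 also: tested at 20 µM; growth read once vehicle control cultures reached saturation at 30 °C; 1 = growth at the plate median or of vehicle wells; lower values mean less growth of the strain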
Details: S. cerevisiae deletion strains, growth OD, locus YIL066C, strain RNR3, stronger effect = lower value
Screen size: about 5,500 compounds; about 2,000 (36%) were called active. Roughly 18% stayed inconclusive and do not appear here. The list shows a part of the results.
readoutName: normalized growth

INSERT INTO results (molecule, val) VALUES
  ('COc1cc(O)c(C(=O)O)c(O)c1', '0.993 (inactive)'),
  ('C[C@H]1C(=O)O[C@@H]2CCN3CC=C(COC(=O)[C@](C)(O)[C@]1(C)O)[C@H]23', '0.992 (inactive)'),
  ('COC(=O)C[C@H]1C(C)(C)[C@@H](OC(C)=O)[C@@H]2CC3C4CC(=O)O[C@@H](c5ccoc5)[C@]4(C)CCC3[C@@]1(C)C2=O (stereo not given in full)', '0.997 (inactive)'),
  ('CCOC(=O)C1=C(C)NC(C)=C(C(=O)OC)C1c1cccc([N+](=O)[O-])c1 (stereo not given)', '1.02 (inactive)'),
  ('CC(=O)OCC(=O)[C@@]1(O)CCC2C3CCC4=CC(=O)CC[C@]4(C)[C@@]3(F)[C@@H](O)C[C@@]21C (stereo not given in full)', '0.995 (inactive)'),
  ('O=c1[nH]cnc2nc[nH]c12', '0.998 (inactive)'),
  ('COc1cc2ccc(=O)oc2cc1O', '0.935 (inactive)'),
  ('OCCN1CCN(CCCN2c3ccccc3Sc3ccc(Cl)cc32)CC1', '0.998 (inactive)'),
  ('COc1ccc2[nH]cc(CCNC(C)=O)c2c1', '1.01 (inactive)'),
  ('C=C(C)c1cc2cc(C(C)=O)c(O)cc2o1', '0.919 (inactive)'),
  ('CCS(=O)(=O)CCn1c([N+](=O)[O-])cnc1C', '1.02 (inactive)'),
  ('COc1cc2ccc(=O)oc2c2ccoc12', '1 (inactive)'),
  ('Nc1ncnc2c1ncn2[C@@H]1O[C@H](CO)[C@@H](O)[C@@H]1O', '1.01 (inactive)'),
  ('O=C(CCCN1CC=C(n2c(=O)[nH]c3ccccc32)CC1)c1ccc(F)cc1', '0.971 (inactive)'),
  ('CCCC(=O)Nc1ncnc2c1ncn2C1O[C@@H]2COP(=O)(O)O[C@H]2[C@H]1OC(=O)CCC (stereo not given in full)', '1.02 (inactive)');

From: PubChem BioAssay AID1159580
